Reported KIDNEY_TOTAL is given for each of the following compounds.
- Species on record: Rattus norvegicus
- EXPERIMENTAL DETAILS: Open TG-GATES - Regimen: Single
- Assay type: toxicity, organism-based, Sprague-Dawley
- Design: regimen Single, gender Male, age 6 weeks
- ASSAY CONDITIONS: in vivo, po, 100 mg/kg, 3 h, tissue Kidney, route gavage, dose level Low
Answers without a unit are incomplete; give the number and then its unit.

>>> df
                                   compound  result
0  O=C(O)c1cn(C2CC2)c2cc(N3CCNCC3)c(F)cc2c1=O   1.7 g
1  O=C(O)c1cc(/N=N/c2ccc(S(=O)(=O)Nc3ccccn3)cc2)ccc1O   1.9 g
2                  Clc1ccccc1CN1CCc2sccc2C1     2 g

Kindly indicate its recorded KIDNEY_TOTAL. Item: CCc1cc(C(N)=S)ccn1 [ETHIONAMIDE]
1.9 g

Kindly indicate its recorded KIDNEY_TOTAL. Item: C[C@H](CS)C(=O)N1CCC[C@H]1C(=O)O
2.1 g
